Species: Homo sapiens
ASSAY DETAILS: Selectivity index, ratio of IC50 for recombinant human MAO-A to IC50 for recombinant human MAO-B
Measured Ratio IC50 of individual entries
Returns: the value as a bare number; no unit string appended.

Prompt: Name the reported Ratio IC50 value associated with the molecule CCN(CC)CCOc1ccc(/C=C2\COc3ccccc3C2=O)cc1
Completion: 1220

Here is another molecule to look at.
Prompt: I am curious: what Ratio IC50 value has been reported for CN(C)CCCOc1cccc(/C=C2\COc3ccccc3C2=O)c1 ?
Completion: 1940

###

STUDY SYSTEM: Cholinesterase (Equus caballus)
Sequence (P81908 whole entry): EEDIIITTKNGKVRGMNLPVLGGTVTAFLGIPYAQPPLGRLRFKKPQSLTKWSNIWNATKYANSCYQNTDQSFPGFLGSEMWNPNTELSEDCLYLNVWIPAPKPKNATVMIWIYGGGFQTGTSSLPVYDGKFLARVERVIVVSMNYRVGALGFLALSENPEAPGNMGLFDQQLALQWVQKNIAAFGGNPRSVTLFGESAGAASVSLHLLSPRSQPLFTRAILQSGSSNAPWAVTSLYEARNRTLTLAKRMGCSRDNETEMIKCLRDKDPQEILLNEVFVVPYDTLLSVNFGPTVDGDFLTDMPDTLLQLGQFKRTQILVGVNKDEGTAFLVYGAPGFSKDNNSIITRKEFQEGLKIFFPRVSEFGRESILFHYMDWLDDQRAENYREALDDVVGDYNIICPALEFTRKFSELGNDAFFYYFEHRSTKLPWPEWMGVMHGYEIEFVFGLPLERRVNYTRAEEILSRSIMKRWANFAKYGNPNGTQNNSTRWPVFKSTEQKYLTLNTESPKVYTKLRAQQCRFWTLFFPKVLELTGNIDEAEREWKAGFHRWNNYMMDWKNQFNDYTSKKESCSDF
ASSAY DETAILS: Inhibition of equine serum BuChE using S-butyrylthiocholine iodide as substrate preincubated for 5 mins followed by substrate addition measured at 1 to 3 mins time interval by Ellman's method
REPORTED PROPERTY: pIC50
// pIC50: -log10(molar conc.)

Prompt: # get_value(readout= pIC50, system= Cholinesterase (Equus caballus)) for CN1CCN(CCCCCCOc2ccc(/C=C3\COc4ccccc4C3=O)cc2)CC1
Completion: 4.56

Prompt: What measured pIC50 is associated with CCN(CC)CCCCCCOc1ccc(/C=C2\COc3ccccc3C2=O)cc1 on Cholinesterase (Equus caballus)?
Completion: 5.32

Prompt: Could you share what pIC50 was measured for CCN(CC)CCOc1cccc(/C=C2\COc3ccccc3C2=O)c1 , tested on Cholinesterase (Equus caballus)?
Completion: 5.77

Prompt: Query the reported pIC50 for Cholinesterase (Equus caballus); item: CN(C)CCCCCCOc1ccc(/C=C2\COc3ccccc3C2=O)cc1
Completion: 5.04

Prompt: Lab note: need pIC50 with Cholinesterase (Equus caballus) for entry CN(C)CCCOc1ccccc1/C=C1\COc2ccccc2C1=O , please look it up.
Completion: 5.06

###

STUDY SYSTEM: Acetylcholinesterase (Electrophorus electricus, UniProt O42275)
Sequence (O42275 whole entry): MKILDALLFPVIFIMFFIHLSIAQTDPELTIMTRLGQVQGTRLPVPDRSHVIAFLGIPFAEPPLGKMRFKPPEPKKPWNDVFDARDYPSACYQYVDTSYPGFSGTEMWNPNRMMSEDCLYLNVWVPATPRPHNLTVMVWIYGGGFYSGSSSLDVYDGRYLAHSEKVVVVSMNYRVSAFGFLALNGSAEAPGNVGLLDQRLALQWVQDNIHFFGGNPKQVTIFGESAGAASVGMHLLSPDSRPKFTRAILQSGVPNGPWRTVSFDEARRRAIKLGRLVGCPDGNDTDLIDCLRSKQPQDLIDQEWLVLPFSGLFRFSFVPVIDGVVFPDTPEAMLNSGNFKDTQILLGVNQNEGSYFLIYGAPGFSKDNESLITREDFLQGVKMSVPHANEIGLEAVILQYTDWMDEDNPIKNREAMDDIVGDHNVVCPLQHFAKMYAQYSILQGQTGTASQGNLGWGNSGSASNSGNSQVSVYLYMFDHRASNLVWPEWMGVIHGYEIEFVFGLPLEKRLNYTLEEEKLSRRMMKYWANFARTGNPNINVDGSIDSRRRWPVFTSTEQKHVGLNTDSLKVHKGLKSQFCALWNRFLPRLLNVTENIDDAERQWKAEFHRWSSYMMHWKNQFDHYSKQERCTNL
REPORTED PROPERTY: IC50 (µM)
// note: answer is a bare numeric in µM

The examples below pair each entry with its known result.
Prompt: // lookup IC50 for CCN(CC)CCOc1ccc(/C=C2\COc3ccccc3C2=O)cc1
Completion: 1.03

Prompt: What does the data say about its IC50? Entry: CCN(CCCOc1ccc(/C=C2\COc3ccccc3C2=O)cc1)Cc1ccccc1
Completion: 29.4

Prompt: Quick one: IC50 of CCN(CCOc1ccc(/C=C2\COc3ccccc3C2=O)cc1)Cc1ccccc1 ?
Completion: 1.29

Prompt: Requested field: IC50. Item: CCN(CC)CCCOc1cccc(/C=C2\COc3ccccc3C2=O)c1
Completion: 14.1

Prompt: What IC50 value was documented for this compound, CN1CCN(CCCOc2ccc(/C=C3\COc4ccccc4C3=O)cc2)CC1 ?
Completion: 10.1

Prompt: // IC50 lookup, key: CCN(CC)CCOc1cccc(/C=C2\COc3ccccc3C2=O)c1
Completion: 4.16

Others:
Prompt: So what's the measured IC50 for this one? CN(C)CCCOc1ccc(/C=C2\COc3ccccc3C2=O)cc1
Completion: 5.21

Prompt: Requested field: IC50. Item: CN(C)CCCOc1ccccc1/C=C1\COc2ccccc2C1=O
Completion: 75.1

Prompt: Fill blank: measured IC50 of the compound CN(CCCCCCOc1ccc(/C=C2\COc3ccccc3C2=O)cc1)Cc1ccccc1 is ____.
Completion: 1.77

Prompt: Report IC50 for CN(C)CCCCCCOc1ccc(/C=C2\COc3ccccc3C2=O)cc1 please.
Completion: 12.8

Prompt: I am curious: what IC50 value has been reported for O=C1/C(=C/c2ccc(OCCCCCCN3CCN(Cc4ccccc4)CC3)cc2)COc2ccccc21 ?
Completion: 60.8
